Source of measurements: ChEMBL document CHEMBL1649472

Experiment: AUClast in adipose tissue of healthy human at 200 mg/l administered via microdialysis probe up to 12 hrs
Assay type: ADME
Design: time < 12 hr
ATTRIBUTE_MEASURED: AUC(0-t) at 12 h (ng·h/mL)
Only the number, expressed in ng·h/mL, is required.

Problem: GET /values?readout=AUC(0-t) at 12 h&item= Nc1nc(/C(=N/O)C(=O)N[C@@H]2C(=O)N3C(C(=O)O)=C(/C=C4\CCN([C@@H]5CCNC5)C4=O)CS[C@H]23)ns1
Result: 34300

====

Assay: AUC (0 to infinity) in plasma of healthy human at […] up to 12 hrs
Assay type: ADME
Parameters: time infinity
ATTRIBUTE_MEASURED: AUC(0-inf)
Entry format: amount then unit.

Problem: # AUC(0-inf) lookup, item Nc1nc(/C(=N/O)C(=O)N[C@@H]2C(=O)N3C(C(=O)O)=C(/C=C4\CCN([C@@H]5CCNC5)C4=O)CS[C@H]23)ns1
Result: 98000 ng·h/mL
